- method_notes: Concentration which inhibits luciferase activity by 50% when the luciferon concentration is at its Km
- Parameters: species or system Lampyridae
recorded_endpoint: EC50 (nM)

OCCCCCCCC(Br)CCCCO (stereo not given)    7380
OCCCCCCCCCCCCO    1540
OCCCCCCC(Br)CCCCCO (stereo not given)    29200

I = OCCCCCCCCCCC(Br)CO (stereo not given)
II = OCCCCCCCCCC(Br)CCO (stereo not given)
Task for the reader: decide whether I or II has the larger EC50. When you have decided, please share the label of that item. II
(II: 1740 nM, I: 880 nM)

----------
- method_notes: Inhibition constant for firefly luciferase was evaluated
- Parameters: species or system Lampyridae
pKi: −log10 of the molar value.
recorded_endpoint: pKi

The cases that follow already have their pKi on record.
OCCCCCCCCCCCCO    6.11
OCCCCCCCCCC(Br)CCO (stereo not given)    6.06

I = OCCCCCCCC(Br)CCCCO (stereo not given)
II = OCCCCCCC(Br)CCCCCO (stereo not given)
III = OCCCCCCCCCCC(Br)CO (stereo not given)
Could you please order the items by pKi, going from the lowest number to the highest? The labels, placed in the requested order, form the answer. II, I, III
(II: 4.84, I: 5.43, III: 6.36)

----------
- method_notes: Headecane/water partition coefficient expressed as the equilibrium ratio of the molar concentration in n-hexadecane to that in the buffer
- Assay type: physicochemical
recorded_endpoint: Khd

OCCCCCCCCCCCCO    4.7

I = OCCCCCCCC(Br)CCCCO (stereo not given)
II = OCCCCCCCCCC(Br)CCO (stereo not given)
Higher Khd between I and II ? Your answer should be the label attached to the chosen record. II
(II: 3.1, I: 0.9)

1 = OCCCCCCC(Br)CCCCCO (stereo not given)
2 = OCCCCCCCCCCC(Br)CO (stereo not given)
Which one would you say has the larger Khd value: 1 , or 2 ? Indicate which entry you chose by stating its label. 2

----------
- method_notes: Aqueous solubility in 25 mM N-glycyl-glycine and 10 mM MgSO4 (pH 7.8)
- Assay type: physicochemical
- measurement_conditions: 25 mM N-glycyl-glycine and 10 mM MgSO4 buffer, read-out: S
recorded_endpoint: solubility (µM)

// solved cases for solubility follow
OCCCCCCCC(Br)CCCCO (stereo not given)    2340
OCCCCCCCCCCC(Br)CO (stereo not given)    725

a = OCCCCCCCCCC(Br)CCO (stereo not given)
b = OCCCCCCCCCCCCO
c = OCCCCCCC(Br)CCCCCO (stereo not given)
Given 3 compounds, produce a descending ranking by solubility. To answer, write out the labels according to the requested order. c, a, b

----------
- method_notes: Concentration which anesthetizes 50% of a population of Rana temporaria tadpoles at 20 degrees Centigrade
- Type: functional, frog
recorded_endpoint: EC50 (µM)

OCCCCCCCCCCCCO    39
OCCCCCCCCCCC(Br)CO (stereo not given)    34

P = OCCCCCCCC(Br)CCCCO (stereo not given)
Q = OCCCCCCC(Br)CCCCCO (stereo not given)
R = OCCCCCCCCCC(Br)CCO (stereo not given)
Given 3 molecules, produce a descending ranking by EC50. # the answer lists labels in the order requested Q, R, P

Values compiled from ChEMBL document CHEMBL1126662.
